# Tested on: bronchospasm induced by acetyl choline aerosol in guinea pig
# test_name: inhibition of bronchospasm induced by acetyl choline aerosol in awake guinea pig
# Type: in vivo
# measurement_conditions: Cavia porcellus, iv
Can you tell me ED50 for the items I'm about to list?

Take a look at these entries with their results.
| compound | measurement_kind | recorded_measurement |
| --- | --- | --- |
| CCC[N+]1(C)[C@@H]2CC[C@H]1C[C@@H](OC(=O)CC1=C(c3ccccc3)CCCC1)C2 (stereo partly shown) | ED50 | > 0.6 µmol/kg |
| CCCN1[C@@H]2CC[C@H]1C[C@@H](OC(=O)C1CCCC=C1c1ccccc1)C2 (stereo partly shown) | ED50 | > 7.7 µmol/kg |
| CCCC[N+]1(CCC)[C@@H]2CC[C@H]1C[C@@H](OC(=O)C1CCCC=C1c1ccccc1)C2 (stereo partly shown) | ED50 | > 5.6 µmol/kg |
| CC(C)[N+]1(C(C)C)[C@@H]2CC[C@H]1C[C@@H](OC(=O)CC1=C(c3ccccc3)CCCC1)C2 | ED50 | > 5.6 µmol/kg |
| CC(C)[N+]1(C(C)C)[C@@H]2CC[C@H]1C[C@@H](OC(=O)C1CCCC=C1c1ccccc1)C2 (stereo partly shown) | ED50 | 2.5 µmol/kg |
| CC[N+]1(C)[C@@H]2CC[C@H]1C[C@@H](OC(=O)CC1=C(c3ccccc3)CCCC1)C2 (stereo partly shown) | ED50 | ~0.4 µmol/kg |

Return reported ED50 values for all items listed beneath this line.
1. CCC[N+]1(C(C)C)[C@@H]2CC[C@H]1C[C@@H](OC(=O)C1CCCC=C1c1ccccc1)C2 (stereo partly shown)
2. CCC[N+]1(CC)[C@@H]2CC[C@H]1C[C@@H](OC(=O)C1CCCC=C1c1ccccc1)C2 (stereo partly shown)
3. CN1[C@@H]2CC[C@H]1C[C@@H](OC(=O)C(CO)c1ccccc1)C2 (stereo partly shown) [Atropine sulphate, atropine sulphate, reference compound]
4. CC[N+]1(CC)[C@@H]2CC[C@H]1C[C@@H](OC(=O)C1CCCC=C1c1ccccc1)C2 (stereo partly shown)
5. CC(C)[N+]1(C)[C@@H]2CC[C@H]1C[C@@H](OC(=O)C(CO)c1ccccc1)C2 (stereo partly shown) [ipratropium bromide, reference compound]

Result:
["> 5.7 µmol/kg", "0.228 µmol/kg", "0.068 µmol/kg", "0.029 µmol/kg", "0.012 µmol/kg"]

Hey, quick one: what's ED50 for each of these?
1. CN1[C@@H]2CC[C@H]1C[C@@H](OC(=O)CC1=C(c3ccccc3)CCCC1)C2
2. CCN1[C@@H]2CC[C@H]1C[C@@H](OC(=O)C1CCCC=C1c1ccccc1)C2 (stereo partly shown)
3. CC(C)N1[C@@H]2CC[C@H]1C[C@@H](OC(=O)CC1=C(c3ccccc3)CCCC1)C2
4. CC[N+]1(C(C)C)[C@@H]2CC[C@H]1C[C@@H](OC(=O)CC1=C(c3ccccc3)CCCC1)C2 (stereo partly shown)
5. CC(C)[N+]1(C)[C@@H]2CC[C@H]1C[C@@H](OC(=O)CC1=C(c3ccccc3)CCCC1)C2 (stereo partly shown)
6. CCCC[N+]1(C(C)C)[C@@H]2CC[C@H]1C[C@@H](OC(=O)C1CCCC=C1c1ccccc1)C2 (stereo partly shown)
7. CC(C)C[N+]1(C(C)C)[C@@H]2CC[C@H]1C[C@@H](OC(=O)C1CCCC=C1c1ccccc1)C2 (stereo partly shown)

Result:
1: ~15 µmol/kg; 2: 6.12 µmol/kg; 3: > 7.4 µmol/kg; 4: > 5.7 µmol/kg; 5: > 0.6 µmol/kg; 6: 0.99 µmol/kg; 7: 1.08 µmol/kg

---

# test_name: acute toxicity in the mouse
# measurement_conditions: in vivo, ip, ratio os/i.p., read-out: LD50 os/i.p.
Provide the reported selectivity ratio of each item.

Worked cases, selectivity ratio given:
| molecule | selectivity ratio |
| --- | --- |
| CC[N+]1(C(C)C)[C@@H]2CC[C@H]1C[C@@H](OC(=O)C1CCCC=C1c1ccccc1)C2 (stereo partly drawn) | 3.3 |
| CCC[N+]1(C)[C@@H]2CC[C@H]1C[C@@H](OC(=O)C1CCCC=C1c1ccccc1)C2 (stereo partly drawn) | 4.8 |
| CC[N+]1(CC)[C@@H]2CC[C@H]1C[C@@H](OC(=O)C1CCCC=C1c1ccccc1)C2 (stereo partly drawn) | 7.5 |
| CC[N+]1(C)[C@@H]2CC[C@H]1C[C@@H](OC(=O)C1CCCC=C1c1ccccc1)C2 (stereo partly drawn) | 2.8 |

Could I get selectivity ratio for every one of these entries?
1. C[N+]1(C)[C@@H]2CC[C@H]1C[C@@H](OC(=O)CC1=C(c3ccccc3)CCCC1)C2
2. CC(C)[N+]1(C)[C@@H]2CC[C@H]1C[C@@H](OC(=O)C1CCCC=C1c1ccccc1)C2 (stereo partly drawn)

Result:
1: 18; 2: 4.1

---

# test_name: acute toxicity in the mouse
# measurement_conditions: in vivo, po, os, approximate value, read-out: approximate value of LD50, os
Output 1 (yes) for records whose LD50 is lower than 600 mg/kg, 0 (no) for records at or above 600 mg/kg.

Example cases with answers are listed next.
| compound | label |
| --- | --- |
| CC[N+]1(C(C)C)[C@@H]2CC[C@H]1C[C@@H](OC(=O)C1CCCC=C1c1ccccc1)C2 (stereo partly drawn) | 1 (yes) |
| C[N+]1(C)[C@@H]2CC[C@H]1C[C@@H](OC(=O)CC1=C(c3ccccc3)CCCC1)C2 | 0 (no) |
| CC[N+]1(CC)[C@@H]2CC[C@H]1C[C@@H](OC(=O)C1CCCC=C1c1ccccc1)C2 (stereo partly drawn) | 0 (no) |
| CC(C)[N+]1(C)[C@@H]2CC[C@H]1C[C@@H](OC(=O)C1CCCC=C1c1ccccc1)C2 (stereo partly drawn) | 1 (yes) |

Here's the next entry for you.
Task: Dear reviewer, please state whether CC[N+]1(C)[C@@H]2CC[C@H]1C[C@@H](OC(=O)C1CCCC=C1c1ccccc1)C2 (stereo partly drawn) has LD50 strictly beneath 600 mg/kg.
Result: 1 (yes)

---

# test_name: acute toxicity in the mouse
# measurement_conditions: in vivo, ip, approximate value, read-out: approximate value of LD50, i.p.
measurement_kind: LD50 (mg/kg)
Answers are plain numbers, in mg/kg.

| compound | LD50 / mg/kg |
| --- | --- |
| C[N+]1(C)[C@@H]2CC[C@H]1C[C@@H](OC(=O)CC1=C(c3ccccc3)CCCC1)C2 [Example 8] | 45 |
| CC[N+]1(C)[C@@H]2CC[C@H]1C[C@@H](OC(=O)C1CCCC=C1c1ccccc1)C2 (stereo partly drawn) [Example 20] | 126 |
| CC[N+]1(CC)[C@@H]2CC[C@H]1C[C@@H](OC(=O)C1CCCC=C1c1ccccc1)C2 (stereo partly drawn) [Example 21] | 107 |
| CCC[N+]1(C)[C@@H]2CC[C@H]1C[C@@H](OC(=O)C1CCCC=C1c1ccccc1)C2 (stereo partly drawn) [Example 25] | 124 |
| CC(C)[N+]1(C)[C@@H]2CC[C@H]1C[C@@H](OC(=O)C1CCCC=C1c1ccccc1)C2 (stereo partly drawn) [Example 13] | 123 |

Here's the next entry for you.
Reported LD50 of CC[N+]1(C(C)C)[C@@H]2CC[C@H]1C[C@@H](OC(=O)C1CCCC=C1c1ccccc1)C2 (stereo partly drawn) [Example 14] : 91

---

# Test system: bronchospasm induced by acetyl choline aerosol in guinea pig
# test_name: inhibition of bronchospasm induced by acetyl choline aerosol in awake guinea pig
# Type: in vivo
# measurement_conditions: Cavia porcellus, iv
Exercise: state measured ED50 for each of the compounds provided.

Give one value of ED50 per listed compound.
1. CCC[N+]1(C(C)C)[C@@H]2CC[C@H]1C[C@@H](OC(=O)CC1=C(c3ccccc3)CCCC1)C2 (stereo partly shown)
2. CC[N+]1(CC(C)C)[C@@H]2CC[C@H]1C[C@@H](OC(=O)C1CCCC=C1c1ccccc1)C2 (stereo partly shown)
3. CCC[N+]1(CC(C)C)[C@@H]2CC[C@H]1C[C@@H](OC(=O)C1CCCC=C1c1ccccc1)C2 (stereo partly shown)
4. CC(C)N1[C@@H]2CC[C@H]1C[C@@H](OC(=O)C1CCCC=C1c1ccccc1)C2 (stereo partly shown)

Result:
["> 5.6 µmol/kg", "> 5.7 µmol/kg", "> 5.6 µmol/kg", "~1.5 µmol/kg"]
